- targetOfAssay: Gal4-RORγ-LBD (Homo sapiens, UniProt P51449)
- Construct: expressed in transfected cells
- test: Gal4-RORγ Luciferase Reporter Assay in HEK-293T Cells
- Type: cell-based
- particulars: HEK-293 cells, luciferase reporter, in presence of ursolic acid
pEC50: −log10 of the molar value.
Each item that follows carries a reported pEC50.
measuredProperty: pEC50

molecule=O=S(=O)(c1cccc(C(F)(F)F)c1)N1C[C@H](O)Cc2ccc(/C=C/c3c(F)cccc3Cl)cc21 targetofassay="Gal4-RORγ-LBD (Homo sapiens, UniProt P51449)" reportedresult="> 6.30"
molecule="CC/C(C)=C\\c1ccc2c(c1)N(S(=O)(=O)c1cccc(C(F)(F)F)c1)C[C@H](CCC(=O)OC)O2 [Example 191C]" targetofassay="Gal4-RORγ-LBD (Homo sapiens, UniProt P51449)" reportedresult="5.30 to 6.30"
molecule="C/C(=C\\c1ccc2c(c1)N(S(=O)(=O)c1cccc(C(F)(F)F)c1)C[C@H](CCC(=O)N1CCC[C@H]1C(=O)O)O2)c1c(F)cccc1Cl [Example 129J]" targetofassay="Gal4-RORγ-LBD (Homo sapiens, UniProt P51449)" reportedresult="5.30 to 6.30"
molecule="CCn1cc(S(=O)(=O)N2C[C@H](CNC(C)=O)Oc3c(F)cc(/C=C(\\C)c4c(F)cccc4Cl)cc32)c(Cl)n1 [Example 109A]" targetofassay="Gal4-RORγ-LBD (Homo sapiens, UniProt P51449)" reportedresult="> 6.30"
molecule=CC(=O)N[C@H]1Cc2ccc(/C=C(\C)c3c(F)cccc3Cl)cc2N(S(=O)(=O)c2cccc(C(F)(F)F)c2)C1 targetofassay="Gal4-RORγ-LBD (Homo sapiens, UniProt P51449)" reportedresult="5.30 to 6.30"
molecule="C/C(=C\\c1ccc2c(c1)N(S(=O)(=O)c1cccc(C(F)(F)F)c1)C[C@H](CCC(=O)N1CCOCC1)O2)c1c(F)cccc1Cl [Example 127B]" targetofassay="Gal4-RORγ-LBD (Homo sapiens, UniProt P51449)" reportedresult="> 6.30"

###

Reported EC50 values for the following molecules.
- targetOfAssay: Gal4-RORγ-LBD (Homo sapiens)
- Construct: expressed in transfected cells
- Sequence (P51449 269-508 limits assumed): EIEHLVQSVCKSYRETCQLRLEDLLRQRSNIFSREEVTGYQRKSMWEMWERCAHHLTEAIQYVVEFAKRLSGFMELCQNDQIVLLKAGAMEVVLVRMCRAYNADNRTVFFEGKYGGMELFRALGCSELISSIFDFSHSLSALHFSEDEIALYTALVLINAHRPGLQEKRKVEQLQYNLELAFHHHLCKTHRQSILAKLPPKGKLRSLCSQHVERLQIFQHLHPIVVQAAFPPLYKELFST
- test: Gal4-RORγ Luciferase Reporter Assay in HEK-293T Cells
- Assay type: cell-based
- particulars: HEK-293 cells, luciferase reporter, with ursolic acid
measuredProperty: EC50

molecule="O=C(O)CC[C@H]1CN(S(=O)(=O)c2cccc(C(F)F)c2)c2cc(/C=C/c3c(Cl)cccc3C(F)(F)F)ccc2O1 [Example 82]" reportedresult="< 500 nM"
molecule="CCOc1ncc(C(F)(F)F)cc1S(=O)(=O)N1C[C@H](CCC(=O)O)Oc2ccc(/C=C/c3c(OC)cccc3C(F)(F)F)cc21 [Example 89ET]" reportedresult="< 500 nM"
molecule="C/C(=C\\c1ccc2c(c1C)N(S(=O)(=O)c1cccc(C(F)(F)F)c1)C[C@H](CCC(=O)O)O2)c1c(F)cccc1Cl [Example 58]" reportedresult="500 to 5000 nM"
molecule="CCOc1ncc(Cl)cc1S(=O)(=O)N1C[C@H](CCC(=O)O)Oc2ccc(/C=C/c3c(Cl)cccc3C(F)(F)F)cc21 [Example 89CZ]" reportedresult="500 to 5000 nM"
molecule="CCOc1ncc(Cl)cc1S(=O)(=O)N1C[C@H](CCC(=O)O)Oc2ccc(/C=C(\\C)c3c(F)cccc3Cl)cc21 [Example 68]" reportedresult="500 to 5000 nM"
molecule="CCOc1nn(CC)cc1S(=O)(=O)N1C[C@H](CCC(=O)O)Oc2ccc(/C=C/c3c(Cl)cccc3C(F)F)cc21 [Example 89EH]" reportedresult="< 500 nM"
molecule="COC(=O)CC[C@H]1CN(S(=O)(=O)c2cn(C(F)F)nc2C)c2cc(/C=C(\\C)c3c(F)cccc3Cl)ccc2O1 [Example 86X]" reportedresult="500 to 5000 nM"
molecule="CCOc1ncc(C(F)(F)F)cc1S(=O)(=O)N1C[C@H](CCC(=O)O)Oc2ccc(C=C3CCCCC3)cc21 [Example 95B]" reportedresult="500 to 5000 nM"
molecule="COc1cc(S(=O)(=O)N2c3cc(OC4CCc5ccccc54)ccc3C[C@@H](C(=O)O)[C@H]2C)ccc1F (mixture of isomers) [Example 22]" reportedresult="500 to 5000 nM"
molecule="COC(=O)CC[C@H]1CN(S(=O)(=O)c2cccc(OC(F)(F)F)c2)c2cc(/C=C(\\C)c3c(F)cccc3Cl)ccc2O1 [Example 86T]" reportedresult="500 to 5000 nM"
molecule="C/C(=C\\c1ccc2c(c1)N(S(=O)(=O)c1cccc(OC(F)(F)F)c1)C[C@H](CCC(=O)O)O2)c1c(F)cccc1Cl [Example 86S]" reportedresult="500 to 5000 nM"
molecule="CC/C(=C\\c1ccc2c(c1)N(S(=O)(=O)c1cccc(C(F)(F)F)c1)C[C@H](CCC(=O)O)O2)c1ccccc1 [Example 36C]" reportedresult="500 to 5000 nM"
molecule="COC(=O)CC[C@H]1CN(S(=O)(=O)c2c(Cl)nc3sccn23)c2cc(/C=C(\\C)c3c(F)cccc3Cl)ccc2O1 [Example 86V]" reportedresult="500 to 5000 nM"
molecule="CCOc1nn(CC)cc1S(=O)(=O)N1C[C@H](CCC(=O)O)Oc2ccc(/C=C/c3ccccc3C)cc21 [Example 89AS]" reportedresult="> 10000 nM"
molecule="CCOc1nn(CC)cc1S(=O)(=O)N1C[C@H](CCC(=O)OC)Oc2ccc(/C=C(\\C)c3c(Cl)cccc3C(F)(F)F)cc21 [Example 86AX]" reportedresult="500 to 5000 nM"
molecule="COC(=O)CC[C@H]1CN(S(=O)(=O)c2cc(C(F)(F)F)cnc2OCCCO)c2cc(/C=C/c3c(F)cccc3Cl)ccc2O1 [Example 89FD]" reportedresult="500 to 5000 nM"
molecule="COc1cccc(S(=O)(=O)N2C[C@H](CCC(=O)O)Oc3ccc(/C=C(\\C)c4c(F)cccc4Cl)cc32)c1 [Example 86M]" reportedresult="500 to 5000 nM"
molecule="CCOc1nn(CC)cc1S(=O)(=O)N1C[C@H](CCC(=O)OC)Oc2ccc(/C=C/c3c(F)cccc3F)cc21 [Example 89AF]" reportedresult="> 10000 nM"

From: patent US9896441B2
